- Test system: Pseudoperonospora cubensis
- assay: Cucumber Downy Mildew (PSPECU), foliar spray, percent disease control
- Type: in vivo
- conditions used: foliar, read-out: PSPECU percent control
Measured pest or weed control at 200 µg/mL by item
parameter measured: pest or weed control at 200 µg/mL

- molecule: "N#Cc1ccnc(Oc2ccc(CCNc3ncnc4nccnc34)cc2)c1 [Compound 8]"
  tested on: "Pseudoperonospora cubensis"
  result: "80 to 100%"
- molecule: "CC(=O)Oc1cc(CCNc2ncnc3nccnc23)ccc1Oc1cc(C(C)(F)F)ccn1 [Compound 196]"
  tested on: "Pseudoperonospora cubensis"
  result: "80 to 100%"
- molecule: "COc1cc(CCNc2ncnc3nccnc23)ccc1O [Compound 37]"
  tested on: "Pseudoperonospora cubensis"
  result: "0 to 49%"
- molecule: "Cc1c(CCNc2ncnc3nccnc23)ccc(Oc2c(F)cnc(C(F)(F)F)c2F)c1C [Compound 149]"
  tested on: "Pseudoperonospora cubensis"
  result: "80 to 100%"
